Provide the recorded logP for the entries that follow.
One number for each entry.

Would you please look over these solved cases?
molecule_smiles=c1ccc(CSc2nc3ccccc3[nH]2)cc1 recorded_value=3.92
molecule_smiles=CC(=O)NNC(=O)c1ccncc1 recorded_value=-0.87
molecule_smiles=c1ccc(C(Sc2nc3ccccc3[nH]2)c2ccccc2)cc1 recorded_value=4.9
molecule_smiles=O=C(NN=C1CCCCC1)c1ccncc1 recorded_value=0.27

Problem: So what's the measured logP for this one? `NNC(=O)c1ccnc(NN)c1`
Solution: -0.57

###

Protocol: method code SF-AS, from DOI: 10.1021/je200827u
Study conditions: pH 5.8
Readout label: logD
Numbers only.

compound=O=C(NN=C1CCCC1)c1ccncc1 readout_label=logD recorded_value=0.22
compound=O=[N+]([O-])c1cc(CSc2nc3ccccc3[nH]2)cc([N+](=O)[O-])c1 readout_label=logD recorded_value=3.14
compound=CCSc1nc2ccccc2n1CC readout_label=logD recorded_value=3.43
compound=CC(C)Sc1nc2ccccc2[nH]1 readout_label=logD recorded_value=3.25
compound="CC1CCC(=NNC(=O)c2ccncc2)CC1 (stereo unspecified)" readout_label=logD recorded_value=0.74

Problem: So what's the measured logD for this one? `CCSc1nc2ccccc2[nH]1`
Solution: 2.67

The reported measurements were obtained from the SangsterLogP compilation.
